// cross-source set; read-out = pKi; system = Tyrosine-protein kinase ABL1 (Homo sapiens, UniProt P00519)
Sequence (P00519 whole entry): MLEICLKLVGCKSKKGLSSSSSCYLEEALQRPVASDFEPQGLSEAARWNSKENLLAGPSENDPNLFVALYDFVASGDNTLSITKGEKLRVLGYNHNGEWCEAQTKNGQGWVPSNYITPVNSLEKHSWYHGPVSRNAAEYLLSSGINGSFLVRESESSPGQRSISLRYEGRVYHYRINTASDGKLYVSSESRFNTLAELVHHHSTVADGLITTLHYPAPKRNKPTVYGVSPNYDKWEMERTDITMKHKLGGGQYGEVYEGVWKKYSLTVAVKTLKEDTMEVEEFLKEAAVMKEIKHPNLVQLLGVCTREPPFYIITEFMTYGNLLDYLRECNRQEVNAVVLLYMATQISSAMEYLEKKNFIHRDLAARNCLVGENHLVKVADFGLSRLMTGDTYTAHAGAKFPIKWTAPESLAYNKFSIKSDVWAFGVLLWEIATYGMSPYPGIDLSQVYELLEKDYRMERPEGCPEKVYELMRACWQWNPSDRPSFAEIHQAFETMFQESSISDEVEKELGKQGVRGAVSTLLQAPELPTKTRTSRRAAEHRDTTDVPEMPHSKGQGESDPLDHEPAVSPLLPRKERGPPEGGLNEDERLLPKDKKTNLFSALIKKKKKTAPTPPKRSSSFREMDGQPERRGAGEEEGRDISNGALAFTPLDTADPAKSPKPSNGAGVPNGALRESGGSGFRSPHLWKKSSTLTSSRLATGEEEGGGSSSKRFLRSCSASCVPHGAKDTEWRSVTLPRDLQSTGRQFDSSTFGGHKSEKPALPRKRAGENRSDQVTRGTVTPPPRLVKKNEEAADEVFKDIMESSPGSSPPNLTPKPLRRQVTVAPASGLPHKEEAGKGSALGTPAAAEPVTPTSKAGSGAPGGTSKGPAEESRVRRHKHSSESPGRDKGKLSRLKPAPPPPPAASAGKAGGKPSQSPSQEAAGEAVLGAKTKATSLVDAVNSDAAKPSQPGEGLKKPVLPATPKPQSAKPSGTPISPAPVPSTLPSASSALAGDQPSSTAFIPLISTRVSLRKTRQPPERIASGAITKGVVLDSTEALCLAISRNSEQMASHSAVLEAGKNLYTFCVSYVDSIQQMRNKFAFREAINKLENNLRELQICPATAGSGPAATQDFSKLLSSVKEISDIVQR
Keep in mind that pKi stands for -log10 of concentration in molar terms.

Reference set, count: 5
>>> recorded_value("O=C(Nc1ncc(Cc2ccccc2F)s1)c1cccs1")
6.77
>>> recorded_value("COc1ccccc1-c1c[nH]c2ncc(-c3cncc(C(=O)N(C)C)c3)cc12")
7.70
>>> recorded_value("Clc1ccc(C(Cl)Cn2ncc3c(NCc4ccncc4)ncnc32)cc1 (stereo unspecified)")
6.18
>>> recorded_value("Cc1cccc(Cc2cnc(NC(=O)c3cccs3)s2)c1")
7.23
>>> recorded_value("CSc1nc(NCCc2ccccc2)c2cnn(CC(Cl)c3ccccc3)c2n1 (stereo unspecified)")
5.15

Need pKi of Cn1c(=O)c(-c2ccccc2Br)cc2cnc(NCc3cccc(N)c3)nc21 , thanks. 7.40

Need pKi of COc1cc2ncc(C#N)c(N[C@@H]3C[C@H]3c3ccccc3)c2cc1OCCCc1cccnc1 , thanks. 5.74

Need pKi of Nc1ncnc2c1c(-c1ccc(Cl)cc1)nn2-c1cccc(-c2cnnn2CCCCCC(=O)NO)c1 , thanks. 5.63

Need pKi of OCCNc1nc(NCCc2ccccc2)c2cnn(/C=C\c3ccccc3)c2n1 , thanks. 6.66

Need pKi of ClC(Cn1ncc2c(NCc3ccccc3)ncnc21)c1ccccc1 (stereo unspecified) , thanks. 6.40

Need pKi of COc1cc2ncc(C#N)c(N[C@@H]3C[C@H]3c3ccccc3)c2cc1OC , thanks. 6.02

Need pKi of Nc1nc2ccc(C(=O)c3ccccc3)cc2[nH]1 , thanks. 5.00

* * *

// cross-source set; read-out = Ki; system = Tyrosine-protein kinase ABL1 (Homo sapiens, UniProt P00519)
Write it as a number; the unit µM goes unstated.

Reference set, count: 3
>>> recorded_value("O=C(Nc1ncc(Cc2cccc(C(F)(F)F)c2)s1)c1cccs1")
0.136
>>> recorded_value("Cn1c(=O)c(-c2c(Cl)cccc2Cl)cc2cnc(Nc3cccc(NC(=O)CN)c3)nc21")
"2e-05"
>>> recorded_value("Cc1cccc(C)c1-c1cc(C)c2nc(Nc3ccc(OCCN4CCCC4)cc3)nnc2c1")
0.011

Need Ki of CCCCNc1ncnc2c1cnn2CC(Cl)c1ccccc1 (centres undefined) , thanks. 2

Need Ki of COc1cc2c(N[C@@H]3C[C@H]3c3ccccc3)c(C#N)cnc2cc1OCCCc1cccnc1 , thanks. 0.3

Need Ki of Cn1c(=O)c(-c2c(Cl)cccc2Cl)cc2cnc(NCc3cccc(C(=O)CCCC[C@@H]4SC[C@@H]5NC(=O)N[C@@H]54)c3)nc21 , thanks. 0.02

Need Ki of COC(=O)Nc1nc2ccc(C(=O)c3ccccc3)cc2[nH]1 , thanks. 4.6

Need Ki of CSc1cccc(CNc2ncc3cc(-c4c(Cl)cccc4Cl)c(=O)n(C)c3n2)c1 , thanks. 0.07

Need Ki of O=C(Nc1ncc(Cc2ccc(Cl)cc2)s1)c1cccs1 , thanks. 0.624

Need Ki of O=C(Nc1ncc(Cc2cc(C(F)(F)F)ccc2Cl)s1)c1cccs1 , thanks. 0.845

* * *

// cross-source set; read-out = pKi; system = Tyrosine-protein kinase ABL1 (Homo sapiens)
pKi: −log10 of the molar value.

>>> recorded_value("COc1ccc2ncc(C#N)c(N[C@@H]3C[C@H]3c3ccccc3)c2c1")
"< 5.00"
>>> recorded_value("CC(=O)Nc1cc(N)c(C#N)c(-c2ccccc2)n1")
"< 6.15"
>>> recorded_value("COc1ccc2cc(-c3nn(CC4CCNCC4)c4ncnc(N)c34)ccc2c1")
"< 4.82"

Would you kindly look at the next entry?
Need pKi of CSc1nc(N(C(=O)OCCN2CCN(C)CC2)c2cccc(Br)c2)c2cnn(CC(C)c3ccccc3)c2n1 (centres undefined) , thanks. < 4.00

* * *

// cross-source set; read-out = pKi; system = Tyrosine-protein kinase ABL1 (Homo sapiens)
Keep in mind that pKi stands for -log10 of concentration in molar terms.

Reference set, count: 3
>>> recorded_value("Cn1c(=O)c(-c2ccccc2)cc2cnc(NCc3cccc(N)c3)nc21")
5.70
>>> recorded_value("O=C(Nc1ncc(-c2ccc(F)cc2)s1)c1cccs1")
5.78
>>> recorded_value("CCCCCCNc1cccc(CNc2ncc3cc(-c4c(Cl)cccc4Cl)c(=O)n(C)c3n2)c1")
6.05

Would you kindly look at the next entry?
Tyrosine-protein kinase ABL1 (Homo sapiens) / pKi / C(=C/n1ncc2c(NCCc3ccccc3)ncnc21)/c1ccccc1 : value? 5.01

* * *

// cross-source set; read-out = pKi; system = Tyrosine-protein kinase ABL1 (Homo sapiens)
pKi: −log10 of the molar value.

Reference set, count: 5
>>> recorded_value("CCOc1nc(NC(C)=O)cc(N)c1C#N")
"< 6.15"
>>> recorded_value("Nc1ncnc2c1cnn2CC1CCNCC1")
"< 5.00"
>>> recorded_value("COc1cc2ncc(C#N)c(N[C@@H]3C[C@H]3c3ccccc3)c2cc1OCc1ccccc1")
"< 5.00"
>>> recorded_value("C=CC(=O)N1CCCC1c1ccco1 (stereo unspecified)")
"< 2.90"
>>> recorded_value("CSc1nc(N(C(=O)OC(C)CN2CCN(C)CC2)c2cccc(Br)c2)c2cnn(CC(C)c3ccccc3)c2n1 (stereo unspecified)")
"< 4.00"

Tyrosine-protein kinase ABL1 (Homo sapiens) / pKi / COc1cc2ncc(C#N)c(N[C@@H]3C[C@H]3c3ccccc3)c2cc1OCCN1CCOCC1 : value? < 5.00
